List of IC50 tested on His6-TEV-PDGFRβ (557-1016) (Homo sapiens (Human), UniProt P09619).
Sequence (P09619 557-1016): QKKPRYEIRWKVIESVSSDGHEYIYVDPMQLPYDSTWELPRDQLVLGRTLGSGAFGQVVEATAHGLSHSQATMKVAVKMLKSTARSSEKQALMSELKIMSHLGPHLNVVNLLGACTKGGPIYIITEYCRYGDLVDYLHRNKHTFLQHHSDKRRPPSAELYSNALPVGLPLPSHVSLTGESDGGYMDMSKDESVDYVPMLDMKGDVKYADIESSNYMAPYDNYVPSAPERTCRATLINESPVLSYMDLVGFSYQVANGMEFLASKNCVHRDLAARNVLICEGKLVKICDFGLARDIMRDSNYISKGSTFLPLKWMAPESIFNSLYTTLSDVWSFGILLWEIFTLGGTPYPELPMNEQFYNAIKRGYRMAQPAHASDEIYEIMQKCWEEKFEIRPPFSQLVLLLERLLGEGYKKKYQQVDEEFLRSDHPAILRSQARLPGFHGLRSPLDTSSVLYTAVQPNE

[
  {
    "ENTRY SMILES": "Cc1ncc(NC(=O)CN2CCc3cccnc3C2)cc1NC(=O)c1cnn2cc(-c3cnn(C)c3)sc12",
    "IC50 [nM]": 1
  },
  {
    "ENTRY SMILES": "Cc1cc(C(=O)NCCN(C)C2CCCC2)sc1NC(=O)c1cnn2cc(-c3cnn(C)c3)sc12",
    "IC50 [nM]": 6
  },
  {
    "ENTRY SMILES": "Cc1ncc(C(=O)NCCN2CCC3(CC3)C2)cc1NC(=O)c1cnn2cc(-c3cn(C)nc3C)sc12",
    "IC50 [nM]": 0.3
  },
  {
    "ENTRY SMILES": "Cc1ncc(NC(=O)CN2CCCC23CC3)cc1NC(=O)c1cnn2cc(-c3cnn(CCO)c3)sc12",
    "IC50 [nM]": 0.4
  },
  {
    "ENTRY SMILES": "Cc1ncc(C(=O)NCCN2CC(C)(C)C2)cc1NC(=O)c1cnn2cc(-c3cnn(C)c3)sc12",
    "IC50 [nM]": 0.3
  },
  {
    "ENTRY SMILES": "Cc1ncc(NC(=O)CN2CC(C)(C)C2)cc1NC(=O)c1cnn2cc(-c3cncnc3)sc12",
    "IC50 [nM]": 6.3
  },
  {
    "ENTRY SMILES": "Cc1ncc(NC(=O)CN2CCOCC23CCC3)cc1NC(=O)c1cnn2cc(-c3cnn(C)c3)sc12",
    "IC50 [nM]": 0.9
  }
]

###

# ASSAYED TARGET: VEGFR2, unphosphorylated (Homo sapiens (Human), UniProt P35968)
# Sequence (P35968 20-1356): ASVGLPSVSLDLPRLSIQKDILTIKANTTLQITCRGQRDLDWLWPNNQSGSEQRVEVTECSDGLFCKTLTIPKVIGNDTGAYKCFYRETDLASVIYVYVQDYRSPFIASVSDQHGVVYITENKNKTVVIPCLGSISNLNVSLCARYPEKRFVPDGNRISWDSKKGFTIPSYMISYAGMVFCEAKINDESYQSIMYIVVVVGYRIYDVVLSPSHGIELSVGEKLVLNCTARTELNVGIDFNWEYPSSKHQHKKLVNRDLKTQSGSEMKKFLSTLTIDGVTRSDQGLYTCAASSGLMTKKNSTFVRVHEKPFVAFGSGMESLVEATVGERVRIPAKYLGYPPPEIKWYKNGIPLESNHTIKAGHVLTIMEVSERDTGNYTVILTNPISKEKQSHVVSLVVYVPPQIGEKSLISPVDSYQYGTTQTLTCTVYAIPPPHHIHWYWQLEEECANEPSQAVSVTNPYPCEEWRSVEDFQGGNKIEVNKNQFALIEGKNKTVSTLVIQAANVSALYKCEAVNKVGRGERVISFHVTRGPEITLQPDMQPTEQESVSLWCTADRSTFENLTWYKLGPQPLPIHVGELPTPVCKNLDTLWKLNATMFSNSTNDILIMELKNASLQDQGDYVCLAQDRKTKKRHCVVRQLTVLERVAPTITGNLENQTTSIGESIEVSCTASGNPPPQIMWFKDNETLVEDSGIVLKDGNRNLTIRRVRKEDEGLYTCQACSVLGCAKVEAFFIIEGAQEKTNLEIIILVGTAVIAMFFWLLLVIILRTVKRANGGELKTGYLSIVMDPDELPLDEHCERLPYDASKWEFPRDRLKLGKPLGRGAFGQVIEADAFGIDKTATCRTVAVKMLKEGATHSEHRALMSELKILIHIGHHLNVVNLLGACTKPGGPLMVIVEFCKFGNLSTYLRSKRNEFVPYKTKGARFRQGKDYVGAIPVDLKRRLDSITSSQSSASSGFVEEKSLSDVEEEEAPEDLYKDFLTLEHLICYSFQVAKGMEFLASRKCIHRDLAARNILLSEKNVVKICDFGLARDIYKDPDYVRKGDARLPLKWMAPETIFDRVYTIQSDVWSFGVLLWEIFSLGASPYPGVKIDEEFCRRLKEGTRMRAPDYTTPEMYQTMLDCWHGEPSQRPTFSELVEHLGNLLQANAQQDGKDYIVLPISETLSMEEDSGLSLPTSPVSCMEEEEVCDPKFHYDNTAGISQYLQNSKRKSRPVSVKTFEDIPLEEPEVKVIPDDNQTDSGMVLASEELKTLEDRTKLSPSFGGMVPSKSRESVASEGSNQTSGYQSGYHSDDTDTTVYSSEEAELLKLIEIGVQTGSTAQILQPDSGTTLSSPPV
# RUN DESCRIPTION: VEGFR ADP GLO Assay
# Type: biochemical
ATTRIBUTE MEASURED: IC50

[
  {
    "MOLECULE": "Cc1ncc(C(=O)NC2CN(C(C)(C)C)C2)cc1NC(=O)c1cnn2cc(-c3cccc4c3cnn4C)sc12",
    "RESULT VALUE": "> 2.5 µM"
  },
  {
    "MOLECULE": "COC1CCN(CC(=O)Nc2cnc(C)c(NC(=O)c3cnn4cc(-c5cn(C)nc5C)sc34)c2)C1 (stereo not shown)",
    "RESULT VALUE": "> 7.5 µM"
  },
  {
    "MOLECULE": "Cc1ncc(NC(=O)CN2CC(C)(C)C2)cc1NC(=O)c1cnn2cc(-c3c(C)nn(C4COC4)c3C)sc12",
    "RESULT VALUE": "> 7.5 µM"
  },
  {
    "MOLECULE": "Cc1ncc(NC(=O)CNC2CCC2)cc1NC(=O)c1cnn2cc(-c3cnn4c3OCCC4)sc12",
    "RESULT VALUE": "> 7.5 µM"
  }
]

###

# ASSAYED TARGET: VEGFR2, unphosphorylated (Homo sapiens (Human), UniProt P35968)
# RUN DESCRIPTION: VEGFR ADP GLO Assay
# Type: biochemical
Each entry below carries its reported IC50.

[
  {
    "COMPOUND": "Cc1ncc(C(=O)NCCN2CCCC2(C)C)cc1NC(=O)c1cnn2cc(-c3ccc(=O)[nH]c3)sc12",
    "ASSAYED TARGET": "VEGFR2, unphosphorylated (Homo sapiens (Human), UniProt P35968)",
    "IC50": "> 2.5 µM"
  },
  {
    "COMPOUND": "Cc1ncc(C(=O)NCCN2CCCC2)cc1NC(=O)c1cnn2cc(-c3cn(C)nc3C(F)(F)F)sc12",
    "ASSAYED TARGET": "VEGFR2, unphosphorylated (Homo sapiens (Human), UniProt P35968)",
    "IC50": "> 0.833 µM"
  },
  {
    "COMPOUND": "Cc1ncc(NC(=O)CC2CNC2)cc1NC(=O)c1cnn2cc(-c3cnn4c3CCC4)sc12",
    "ASSAYED TARGET": "VEGFR2, unphosphorylated (Homo sapiens (Human), UniProt P35968)",
    "IC50": "> 7.5 µM"
  },
  {
    "COMPOUND": "Cc1ncc(NC(=O)C2CN(C(C)C)C2)cc1NC(=O)c1cnn2cc(-c3cn(C)nc3C)sc12",
    "ASSAYED TARGET": "VEGFR2, unphosphorylated (Homo sapiens (Human), UniProt P35968)",
    "IC50": "> 7.5 µM"
  },
  {
    "COMPOUND": "COCC1CN(CC(=O)Nc2cnc(C)c(NC(=O)c3cnn4cc(-c5cnn(C)c5)sc34)c2)CC(C)(C)O1 (stereo not shown)",
    "ASSAYED TARGET": "VEGFR2, unphosphorylated (Homo sapiens (Human), UniProt P35968)",
    "IC50": "> 2.5 µM"
  },
  {
    "COMPOUND": "COc1ncccc1-c1cn2ncc(C(=O)Nc3cc(NC(=O)CN4CC(C)C4)cnc3C)c2s1",
    "ASSAYED TARGET": "VEGFR2, unphosphorylated (Homo sapiens (Human), UniProt P35968)",
    "IC50": "6.66 µM"
  },
  {
    "COMPOUND": "Cc1ncc(NC(=O)CN2CCC2)cc1NC(=O)c1cnn2cc(-c3cnn4c3OCCC4)sc12",
    "ASSAYED TARGET": "VEGFR2, unphosphorylated (Homo sapiens (Human), UniProt P35968)",
    "IC50": "> 7.5 µM"
  }
]
